Origin of measurements: patent US20240067748A1

Target: T1, human Trop2 on cells (human, UniProt P09758 27-323)
T1 construct: whole, on cells; also called hTrop2; 293T-human Trop2 cells
T1 sequence (looked up): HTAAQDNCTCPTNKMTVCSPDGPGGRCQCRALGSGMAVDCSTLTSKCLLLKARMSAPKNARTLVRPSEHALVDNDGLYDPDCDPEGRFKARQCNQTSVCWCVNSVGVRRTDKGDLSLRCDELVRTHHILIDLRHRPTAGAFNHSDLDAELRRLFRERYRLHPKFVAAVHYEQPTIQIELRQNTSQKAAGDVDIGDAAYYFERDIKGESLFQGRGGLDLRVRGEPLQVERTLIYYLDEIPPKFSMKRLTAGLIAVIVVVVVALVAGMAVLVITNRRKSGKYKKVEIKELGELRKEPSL
Test: flow cytometry on 293T-human Trop2 cells
Protocol: The cell density was determined, and the cells were resuspended to 1×10⁶ cells/mL in PBS. 100 μL of cell suspension was taken from each well and added to a 96 well V-bottom plate. The 96-well V-bottom plate was centrifuged at 1000 rpm for 5 min and washed once with PBS+0.5% BSA (VWR, #0332-100G). […] After 1 h, the cells were washed twice with PBS+0.5% BSA. […] The fluorescence intensity of the cells was analyzed using a FACS verse flow cytometer. […]
pEC50: −log10 of the molar value.
Assign 1 to entries whose pEC50 meets or exceeds 9; assign -1 to the rest.

[[record]]
binder = "PR001164 (antibody, human IgG1, kappa, V domains shown, fully human IgG1/kappa; also called antibody No. (25)) VH: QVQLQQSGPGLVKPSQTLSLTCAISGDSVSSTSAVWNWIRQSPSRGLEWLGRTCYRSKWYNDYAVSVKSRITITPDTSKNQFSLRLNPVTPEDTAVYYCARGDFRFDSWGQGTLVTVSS VL: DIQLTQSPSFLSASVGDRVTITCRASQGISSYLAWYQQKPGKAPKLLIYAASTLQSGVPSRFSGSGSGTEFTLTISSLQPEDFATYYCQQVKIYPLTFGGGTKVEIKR"
assigned_category = -1

[[record]]
binder = "PR001138 (antibody, human IgG1, kappa, V domains shown, fully human IgG1/kappa; also called antibody No. (7)) VH: QVQLQESGPRLVKPSETLSLTCAVSGYSISSGYYWGWIRQSPGMGLEWIAYIYHDGSTYCNPSLKSRVTMSVDTSKNQFSLKLRSVTAADTAVYYCARDGAAAPFDYWGQGTLVTVSS VL: DIQMTQSPSTLSASVGDRVTITCRASQSISNWLAWYQQKPGKAPKVLIYKASSLESGVPSRFSGSGSGTEFTLTINSLQPDDFATYYCQQYDSYSITFGQGTRLEIKR"
assigned_category = 1

[[record]]
binder = "PR001162 (antibody, human IgG1, kappa, V domains shown, fully human IgG1/kappa; also called antibody No. (23)) VH: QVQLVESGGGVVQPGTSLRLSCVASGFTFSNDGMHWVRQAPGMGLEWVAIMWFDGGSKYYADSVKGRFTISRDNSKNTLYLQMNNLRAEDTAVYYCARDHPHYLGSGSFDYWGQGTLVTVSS VL: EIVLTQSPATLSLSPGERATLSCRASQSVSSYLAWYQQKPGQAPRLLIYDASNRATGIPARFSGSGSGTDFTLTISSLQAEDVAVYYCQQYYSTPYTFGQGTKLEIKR"
assigned_category = 1

[[record]]
binder = "PR001170 (antibody, human IgG1, kappa, V domains shown, fully human IgG1/kappa; also called antibody No. (29)) VH: QVQLQESGPGLVKPSETLSLTCAVSGYSINSGYFWAWIRQPPGMGLEWIGSIYHSGRTHYNPSLKSRVIISLDTSKNQFSLKLRSVTAADSAVYYCAREGYASGSYYWGQGTLVTVSS VL: EIVMTQSPATLSVSPGERATLSCRSSQSVNSYLAWFQQKPGQAPRLLIYDSSTRATGIPARFSGSGSGTEFTLTISSLQSEDFAFYFCQQYENWPLTFGGGTKVEIKR"
assigned_category = 1

[[record]]
binder = "PR001154 (antibody, human IgG1, kappa, V domains shown, fully human IgG1/kappa; also called antibody No. (17)) VH: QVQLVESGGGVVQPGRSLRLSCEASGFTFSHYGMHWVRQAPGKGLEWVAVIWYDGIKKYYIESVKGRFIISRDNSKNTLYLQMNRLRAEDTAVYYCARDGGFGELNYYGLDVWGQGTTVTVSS VL: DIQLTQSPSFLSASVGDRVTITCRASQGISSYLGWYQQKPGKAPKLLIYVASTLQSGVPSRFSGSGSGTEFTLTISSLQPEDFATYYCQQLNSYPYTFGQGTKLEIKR"
assigned_category = -1

